Target: Leukotriene A-4 hydrolase (LTA4H) aminopeptidase activity (Homo sapiens)
Sequence (P09960 whole entry): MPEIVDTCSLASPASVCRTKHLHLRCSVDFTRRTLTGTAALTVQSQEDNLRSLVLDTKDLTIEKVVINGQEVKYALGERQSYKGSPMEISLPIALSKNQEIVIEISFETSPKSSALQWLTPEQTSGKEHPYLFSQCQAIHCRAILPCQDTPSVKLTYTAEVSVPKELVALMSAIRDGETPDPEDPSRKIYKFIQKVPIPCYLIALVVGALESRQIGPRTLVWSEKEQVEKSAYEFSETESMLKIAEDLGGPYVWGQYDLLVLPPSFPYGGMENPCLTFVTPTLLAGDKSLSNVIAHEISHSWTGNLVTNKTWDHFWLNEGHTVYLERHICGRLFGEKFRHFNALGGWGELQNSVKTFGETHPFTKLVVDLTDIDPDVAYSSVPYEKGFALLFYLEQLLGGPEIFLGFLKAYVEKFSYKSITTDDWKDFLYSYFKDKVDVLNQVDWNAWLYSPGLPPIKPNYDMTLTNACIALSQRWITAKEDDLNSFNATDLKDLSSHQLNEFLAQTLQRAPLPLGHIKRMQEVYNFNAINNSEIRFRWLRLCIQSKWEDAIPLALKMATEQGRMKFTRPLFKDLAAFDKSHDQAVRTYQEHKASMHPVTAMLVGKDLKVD
Assay: Inhibition of recombinant human LTA4H aminopeptidase activity expressed in Escherichia coli BL21 (DE3) pLysS assessed as formation of p-NA from Ala-p-NA at 10 uM preincubated for 10 mins followed by substrate addition measured after 10 mins
parameter: inhibition at 10 min, 10 µM

Data request: Request the reported inhibition at 10 min, 10 µM associated with O=C(CCCCCCC(=O)Nc1ccccc1)NO
Data returned: > 50%

Data request: Check C#Cc1cccc(Nc2ncnc3cc(OC)c(OCCCCCCC(=O)NO)cc23)c1 too.
Data returned: > 50%

Data request: Check CCCCc1nc2cc(/C=C/C(=O)NO)ccc2n1CCN(CC)CC too.
Data returned: > 50%

Data request: Check O=C(CCCCCN1C(=O)c2cccc3cccc(c23)C1=O)NO too.
Data returned: > 50%

* * *

Consider the following compounds; for each one, report its IC50.
Biological target: Leukotriene A-4 hydrolase (Homo sapiens, UniProt P09960)
Sequence (P09960 whole entry): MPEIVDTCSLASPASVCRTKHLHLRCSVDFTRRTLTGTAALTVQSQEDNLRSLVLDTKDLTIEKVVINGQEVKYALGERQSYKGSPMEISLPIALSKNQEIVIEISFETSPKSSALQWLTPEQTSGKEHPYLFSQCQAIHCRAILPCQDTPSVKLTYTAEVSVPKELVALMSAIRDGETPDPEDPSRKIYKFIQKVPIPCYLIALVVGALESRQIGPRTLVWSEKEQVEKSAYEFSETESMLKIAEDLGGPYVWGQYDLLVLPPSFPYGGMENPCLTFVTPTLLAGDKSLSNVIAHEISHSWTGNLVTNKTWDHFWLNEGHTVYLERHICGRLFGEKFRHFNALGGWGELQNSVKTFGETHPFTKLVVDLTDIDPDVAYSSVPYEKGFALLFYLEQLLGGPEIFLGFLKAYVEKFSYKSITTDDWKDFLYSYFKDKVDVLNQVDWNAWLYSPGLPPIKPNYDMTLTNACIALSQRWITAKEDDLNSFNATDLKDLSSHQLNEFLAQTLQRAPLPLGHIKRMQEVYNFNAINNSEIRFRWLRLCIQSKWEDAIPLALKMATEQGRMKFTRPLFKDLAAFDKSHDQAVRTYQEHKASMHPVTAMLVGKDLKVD
Experiment: Inhibition of recombinant human LTA4H aminopeptidase activity expressed in Escherichia coli BL21 (DE3) pLysS assessed as formation of p-NA from Ala-p-NA preincubated for 10 mins followed by substrate addition measured after 10 mins
Format: ADME

Data request: Request the reported IC50 associated with Nc1ccccc1NC(=O)c1ccc(CNC(=O)OCc2cccnc2)cc1
Data returned: > 10 µM

Data request: Check CCN(CC)Cc1ccc2cc(COC(=O)Nc3ccc(C(=O)NO)cc3)ccc2c1 too.
Data returned: > 10 µM

Data request: Check CN(C)Cc1ccc(S(=O)(=O)n2ccc(/C=C/C(=O)NO)c2)cc1 too.
Data returned: > 10 µM

Data request: Check O=C(CCCCCCC(=O)Nc1ccccc1)NO too.
Data returned: 1.67 µM

Data request: Check CCCCc1nc2cc(/C=C/C(=O)NO)ccc2n1CCN(CC)CC too.
Data returned: > 10 µM

Data request: Check O=C(CCCCCCNC(=O)c1cnc(N(c2ccccc2)c2ccccc2)nc1)NO too.
Data returned: > 10 µM

Data request: Check O=C(CCCCCCC(=O)Nc1ccc([C@H]2O[C@@H](CSc3nc(-c4ccccc4)c(-c4ccccc4)o3)C[C@@H](c3ccc(CO)cc3)O2)cc1)NO too.
Data returned: > 10 µM

Data request: Check O=C(CCCCCN1C(=O)c2cccc3cccc(c23)C1=O)NO too.
Data returned: 4.4 µM

* * *

Quick record: ΔTm, Leukotriene A-4 hydrolase (Homo sapiens) (UniProt P09960).
Value expressed in °C; do not type the unit.

Data request: Request the reported ΔTm associated with C#Cc1cccc(Nc2ncnc3cc(OC)c(OCCCCCCC(=O)NO)cc23)c1
Data returned: 0.3

Data request: Check O=C(CCCCCCC(=O)Nc1ccc([C@H]2O[C@@H](CSc3nc(-c4ccccc4)c(-c4ccccc4)o3)C[C@@H](c3ccc(CO)cc3)O2)cc1)NO too.
Data returned: 0.34

Data request: Check Nc1ccccc1NC(=O)c1ccc(CNc2nccc(-c3cccnc3)n2)cc1 too.
Data returned: -0.33

Data request: Check O=C(CCCCCCNC(=O)c1cnc(N(c2ccccc2)c2ccccc2)nc1)NO too.
Data returned: 0.55

Data request: Check CCCC(CCC)C(=O)O [VALPROATE SODIUM] too.
Data returned: 0.36

Data request: Check CN(C)Cc1ccc(S(=O)(=O)n2ccc(/C=C/C(=O)NO)c2)cc1 too.
Data returned: 0.44

Data request: Check CN(C)Cc1c(C(=O)NCCOc2ccc(C(=O)NO)cc2)oc2ccccc12 too.
Data returned: 0.24

Data request: Check Cn1cc(CNCC2CCN(c3ncc(C(=O)NO)cn3)CC2)c2ccccc21 too.
Data returned: 0.52

Data request: Check CN(C)c1ccc(C(=O)NCCCCCCC(=O)NO)cc1 too.
Data returned: 2.35

Data request: Check Nc1ccccc1NC(=O)c1ccc(CNC(=O)OCc2cccnc2)cc1 too.
Data returned: 0.39

Data request: Check CCN(CC)Cc1ccc2cc(COC(=O)Nc3ccc(C(=O)NO)cc3)ccc2c1 too.
Data returned: 0.19

Data request: Check O=C(CCCCCN1C(=O)c2cccc3cccc(c23)C1=O)NO too.
Data returned: -0.68

Data request: Check O=C(/C=C/c1cccc(S(=O)(=O)Nc2ccccc2)c1)NO too.
Data returned: 0.11

Data request: Check CCCCc1nc2cc(/C=C/C(=O)NO)ccc2n1CCN(CC)CC too.
Data returned: 0.31

Data request: Check Cc1[nH]c2ccccc2c1CCNCc1ccc(/C=C/C(=O)NO)cc1 too.
Data returned: 0.12

Data request: Check O=C(CCCCCCC(=O)Nc1ccccc1)NO too.
Data returned: 1.47

Data request: Check CC(/C=C/C(=O)NO)=C\[C@@H](C)C(=O)c1ccc(N(C)C)cc1 too.
Data returned: 0.17

* * *

biological target: Leukotriene A-4 hydrolase (Mus musculus, UniProt P24527); assay: Inhibition of LTA4H in C57BL/6 mouse assessed as reduction in LTB4 production pre-incubated for 30 mins before 5-(methylamino)-2-({(2R,3R,6S,8S,9R,11R)-3,9,11-trimethyl-8-[(1S)-1-methyl-2-oxo-2-(1H-pyrrol-2-yl)ethyl]-1,7-dioxaspiro[5.5]undec-2-yl}methyl)-1,3-benzoxazole-4-carboxylic acid stimulation for 30 mins by ELISA
Sequence (P24527 whole entry): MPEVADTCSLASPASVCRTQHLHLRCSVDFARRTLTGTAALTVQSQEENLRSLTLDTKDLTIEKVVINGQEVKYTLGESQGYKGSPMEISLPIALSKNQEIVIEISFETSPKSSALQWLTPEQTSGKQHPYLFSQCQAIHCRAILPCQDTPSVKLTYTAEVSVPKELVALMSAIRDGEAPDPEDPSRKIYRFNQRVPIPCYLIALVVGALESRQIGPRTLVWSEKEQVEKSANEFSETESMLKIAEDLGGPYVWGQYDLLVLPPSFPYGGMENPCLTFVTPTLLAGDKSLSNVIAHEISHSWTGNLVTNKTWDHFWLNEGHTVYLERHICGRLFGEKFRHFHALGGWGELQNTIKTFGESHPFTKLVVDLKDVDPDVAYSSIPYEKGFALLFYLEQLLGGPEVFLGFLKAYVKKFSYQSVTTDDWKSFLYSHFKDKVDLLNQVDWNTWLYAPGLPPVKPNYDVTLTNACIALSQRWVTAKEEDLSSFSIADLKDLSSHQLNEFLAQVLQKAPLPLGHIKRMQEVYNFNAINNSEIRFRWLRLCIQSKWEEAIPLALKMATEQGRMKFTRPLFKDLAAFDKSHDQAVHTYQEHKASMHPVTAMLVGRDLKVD
parameter: IC50 (µM)
Value expressed in µM; do not type the unit.

Data request: Request the reported IC50 associated with O=C(CCCCCCC(=O)Nc1ccccc1)NO
Data returned: 6.15

Data request: Check CN(C)c1ccc(C(=O)NCCCCCCC(=O)NO)cc1 too.
Data returned: 0.79

* * *

tested on: Plasma; assay: Plasma concentration in mouse by liquid chromatography mass spectrometry; type: ADME, cell-free
parameter: concentration

Data request: Request the reported concentration associated with O=C(CCCCCCC(=O)Nc1ccccc1)NO
Data returned: 1 to 10 µM

* * *

biological target: Leukotriene A-4 hydrolase (Homo sapiens); assay: Inhibition of recombinant human LTA4H aminopeptidase activity expressed in Escherichia coli BL21 (DE3) pLysS assessed as formation of p-NA from Ala-p-NA preincubated for 10 mins followed by substrate addition measured after 10 mins; type: ADME
Consider the following compounds; for each one, report its IC50.

Data request: Form: Entry = O=C(/C=C/c1cccc(S(=O)(=O)Nc2ccccc2)c1)NO | System = Leukotriene A-4 hydrolase (Homo sapiens) | IC50 = ____
Data returned: > 10 µM

Data request: Check CC(/C=C/C(=O)NO)=C\[C@@H](C)C(=O)c1ccc(N(C)C)cc1 too.
Data returned: > 10 µM

Data request: Check CCCC(CCC)C(=O)O [VALPROATE SODIUM] too.
Data returned: > 10 µM

Data request: Check C#Cc1cccc(Nc2ncnc3cc(OC)c(OCCCCCCC(=O)NO)cc23)c1 too.
Data returned: > 10 µM

Data request: Check Cn1cc(CNCC2CCN(c3ncc(C(=O)NO)cn3)CC2)c2ccccc21 too.
Data returned: > 10 µM

Data request: Check CN(C)Cc1c(C(=O)NCCOc2ccc(C(=O)NO)cc2)oc2ccccc12 too.
Data returned: > 10 µM

Data request: Check Cc1[nH]c2ccccc2c1CCNCc1ccc(/C=C/C(=O)NO)cc1 too.
Data returned: > 10 µM

Data request: Check CN(C)c1ccc(C(=O)NCCCCCCC(=O)NO)cc1 too.
Data returned: 0.3 µM

Data request: Check Nc1ccccc1NC(=O)c1ccc(CNc2nccc(-c3cccnc3)n2)cc1 too.
Data returned: > 10 µM
